# experimentalTarget: recombinant soluble homotrimeric HA of A/California/4/09 (H1N1) (Influenza A virus A/California/04/2009(H1N1))
# protocolDetails: trimeric HA microarray, transfection supernatant set 2
# protocolConditions: remark: other sources report otherwise
endpointLabel: Trimeric HA Binding: RLU (RLU)

• TCN-522 (3212_I12) (antibody, V domains shown) VH: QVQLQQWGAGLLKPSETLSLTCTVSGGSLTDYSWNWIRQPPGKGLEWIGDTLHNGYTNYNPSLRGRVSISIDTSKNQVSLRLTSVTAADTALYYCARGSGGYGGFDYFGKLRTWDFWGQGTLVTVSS VL: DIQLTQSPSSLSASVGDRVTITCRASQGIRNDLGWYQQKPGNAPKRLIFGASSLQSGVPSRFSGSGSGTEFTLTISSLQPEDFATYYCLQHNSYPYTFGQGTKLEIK = 37500
